Biological target: T1, p105-HA (UniProt P19838 1-968, limits assumed)
T1 construct: Co-expressed with FLAG-tagged KPC1 species in HEK293T cells and detected with anti-NF-κB1 after anti-FLAG immunoprecipitation; also called NF-κB1 p105; NF-kB1 p105; not shown: HA tag
T1 sequence (looked up): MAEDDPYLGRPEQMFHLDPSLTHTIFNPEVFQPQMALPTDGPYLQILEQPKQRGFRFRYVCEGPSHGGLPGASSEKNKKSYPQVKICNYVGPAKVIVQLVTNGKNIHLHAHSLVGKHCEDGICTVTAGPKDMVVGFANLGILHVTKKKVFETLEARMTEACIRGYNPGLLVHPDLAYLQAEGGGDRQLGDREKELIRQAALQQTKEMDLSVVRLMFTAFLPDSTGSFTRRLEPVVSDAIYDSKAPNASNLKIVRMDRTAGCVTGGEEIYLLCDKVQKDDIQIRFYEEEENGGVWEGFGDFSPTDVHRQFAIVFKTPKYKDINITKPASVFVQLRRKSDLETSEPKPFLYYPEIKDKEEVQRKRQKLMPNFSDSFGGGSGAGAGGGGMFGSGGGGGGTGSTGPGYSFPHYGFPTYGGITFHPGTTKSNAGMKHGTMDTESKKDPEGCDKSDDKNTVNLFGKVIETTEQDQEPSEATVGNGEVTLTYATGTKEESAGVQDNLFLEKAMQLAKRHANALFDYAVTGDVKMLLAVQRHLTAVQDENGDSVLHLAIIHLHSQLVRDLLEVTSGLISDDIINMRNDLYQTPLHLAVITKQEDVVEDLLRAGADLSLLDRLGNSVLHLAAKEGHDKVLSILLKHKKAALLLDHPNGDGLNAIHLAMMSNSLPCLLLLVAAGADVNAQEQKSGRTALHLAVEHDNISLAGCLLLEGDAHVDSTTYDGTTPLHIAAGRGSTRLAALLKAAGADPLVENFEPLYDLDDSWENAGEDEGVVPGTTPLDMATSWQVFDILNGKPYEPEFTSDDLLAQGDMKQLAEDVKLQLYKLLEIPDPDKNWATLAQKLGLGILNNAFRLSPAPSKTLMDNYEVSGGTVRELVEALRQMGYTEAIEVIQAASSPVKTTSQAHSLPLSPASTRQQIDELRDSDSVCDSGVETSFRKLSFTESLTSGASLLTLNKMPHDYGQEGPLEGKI
Assay: co-immunoprecipitation (anti-FLAG) from HEK293T cells, western blot
assayEndpoint: binding result

binder	val
KPC1 Δ 1-1253 (enzyme, also called KPC1 species xvi) CPICYAHPISAVFQPCGHKSCKACINQHLMNNKDCFFCKTTIVSVEDWEKGANTSTTSSAA	no binding
WILV-KPC1 Δ 1-1253 (enzyme, also called KPC1 species xix) WILVCPICYAHPISAVFQPCGHKSCKACINQHLMNNKDCFFCKTTIVSVEDWEKGANTSTTSSAA	no binding
VRLW-KPC1 Δ 1-1253 (enzyme, also called KPC1 species xiv) VRLWCPICYAHPISAVFQPCGHKSCKACINQHLMNNKDCFFCKTTIVSVEDWEKGANTSTTSSAA	no binding
ILVRLW-KPC1 Δ 1-1253 (enzyme, also called KPC1 species xii) ILVRLWCPICYAHPISAVFQPCGHKSCKACINQHLMNNKDCFFCKTTIVSVEDWEKGANTSTTSSAA	no binding
